Entries and their Percent inhibition
Molecular target: RpaR (Rhodopseudomonas palustris, UniProt Q6NCZ5)
Sequence (Q6NCZ5 whole entry): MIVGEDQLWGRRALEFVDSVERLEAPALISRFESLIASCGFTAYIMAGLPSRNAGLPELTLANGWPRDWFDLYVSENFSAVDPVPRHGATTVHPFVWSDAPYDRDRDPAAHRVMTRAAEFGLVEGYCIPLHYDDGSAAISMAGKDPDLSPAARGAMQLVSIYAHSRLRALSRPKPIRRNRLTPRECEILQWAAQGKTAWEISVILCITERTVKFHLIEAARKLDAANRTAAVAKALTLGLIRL
Assay: Competitive RpaR antagonism reporter gene assay against p-cAHL
Assay type: cell-based
Settings: 1 μM synthetic ligand against p-cAHL at its EC50 value (1 nM); negative values indicate agonistic responses; error < ±10%
Note: a bare number is incomplete; add the unit.

Input smiles | Target | Percent inhibition
O=C(CCc1ccc2c(c1)OCO2)N[C@H]1CCOC1=O | RpaR (Rhodopseudomonas palustris, UniProt Q6NCZ5) | 63%

Query block: Any idea what its Percent inhibition is? The molecule is `O=C(COc1cccc([N+](=O)[O-])c1)N[C@H]1CCOC1=O`
Result block: 63%

Query block: Can you look up the measured Percent inhibition of `O=C(CCc1ccc(F)cc1)N[C@H]1CCOC1=O` for me?
Result block: 70%

Query block: Value lookup for Percent inhibition; key = `O=C(CCc1ccc([N+](=O)[O-])cc1)N[C@H]1CCOC1=O`
Result block: 89%

----------
Target: RpaR (Rhodopseudomonas palustris, UniProt Q6NCZ5)
Assay: Competitive RpaR antagonism reporter gene assay against p-cAHL
Assay type: cell-based
Readout type: IC50 (nM)
Give your result in nM as a bare value.

Query block: Value lookup for IC50; key = O=C(CCc1ccc2c(c1)OCO2)N[C@H]1CCOC1=O [Compound E39, 1,3-benzodioxole PPHL]
Result block: 228

Query block: IC50 lookup needed for O=C(COc1cccc([N+](=O)[O-])c1)N[C@H]1CCOC1=O [Compound E25, 3-NO2 POHL] , thanks.
Result block: 238

Query block: Which IC50 value belongs to O=C(CCc1ccc([N+](=O)[O-])cc1)N[C@H]1CCOC1=O [Compound E37, 4-NO2 PPHL] ?
Result block: 235

Query block: Consider the molecule shown here: O=C(CCc1ccc(F)cc1)N[C@H]1CCOC1=O [Compound E29, 4-F PPHL] What is its recorded IC50?
Result block: 300

----------
Target: RpaR (Rhodopseudomonas palustris)
Assay: RpaR agonism reporter gene assay
Format: cell-based
Conditions: read-out: Percent activation
Decide by activation at 1 µM: equal to or exceeding 90% means True, less means False.

Input smiles | Target | Label
O=C(/C=C/c1cccc(F)c1)N[C@H]1CCOC1=O | RpaR (Rhodopseudomonas palustris) | False
O=C(/C=C/c1ccccc1Br)N[C@H]1CCOC1=O | RpaR (Rhodopseudomonas palustris) | True
O=C(CCc1ccc(O)cc1)N[C@H]1CCOC1=O | RpaR (Rhodopseudomonas palustris) | False
O=C(/C=C/c1ccccc1O)N[C@H]1CCOC1=O | RpaR (Rhodopseudomonas palustris) | False
O=C(/C=C/c1cccc(O)c1)N[C@H]1CCOC1=O | RpaR (Rhodopseudomonas palustris) | True

Query block: Confirm if activation at 1 µM reported for the compound `O=C(/C=C/c1ccccc1F)N[C@H]1CCOC1=O` is 90% or above.
Result block: True

Query block: Evaluate `O=C(/C=C/c1c(F)cccc1F)N[C@H]1CCOC1=O` : activation at 1 µM at minimum 90%?
Result block: True

Query block: Can `O=C(/C=C/c1ccccc1)N[C@H]1CCOC1=O` be said to have activation at 1 µM at or above 90%?
Result block: False

----------
Readings of log10 EC50 for the listed molecules
Molecular target: RpaR (Rhodopseudomonas palustris)
Assay: RpaR agonism reporter gene assay
Conditions: EC50 value, dose response in R. palustris CGA814 reporter
Hi team, quick reminder: these entries are log10 of EC50 (nM).

Consider the worked cases shown below.
Input smiles | Target | Recorded measurement
O=C(/C=C/c1ccccc1O)N[C@H]1CCOC1=O | RpaR (Rhodopseudomonas palustris) | 3.07
O=C(/C=C/c1cccc(F)c1)N[C@H]1CCOC1=O | RpaR (Rhodopseudomonas palustris) | 1.82
O=C(/C=C/c1cccc(O)c1)N[C@H]1CCOC1=O | RpaR (Rhodopseudomonas palustris) | 2.16
O=C(/C=C/c1ccccc1F)N[C@H]1CCOC1=O | RpaR (Rhodopseudomonas palustris) | 0.53
O=C(/C=C/c1ccccc1Br)N[C@H]1CCOC1=O | RpaR (Rhodopseudomonas palustris) | 1.89
O=C(/C=C/c1c(F)cccc1F)N[C@H]1CCOC1=O | RpaR (Rhodopseudomonas palustris) | 0.68

Query block: # input molecule: `O=C(CCc1ccc(O)cc1)N[C@H]1CCOC1=O` ; wanted: its log10 EC50
Result block: 2.73

Query block: Recorded log10 EC50 of `O=C(/C=C/c1ccccc1)N[C@H]1CCOC1=O` , please.
Result block: 1.51
